Test system: insulin receptor (IR)
Assay Details: Phosphotyrosine enzyme linked immunosorbent assay: pTyr on insulin receptor in NIH3T3 cells over-expressing human IR (H25 cells)
Experimental Parameters: read-out: ACTIVITY EC50; Table II; […]; no lot stated
Parameter EC50: see the listing below.

GET /value?item= O=[N+]([O-])c1cnc(Sc2nnc(O)n2Cc2ccccc2)s1 &field=EC50 returns 13 µM

GET /value?item= CC(C)n1c(Sc2ncc([N+](=O)[O-])s2)nc2cc(C(F)(F)F)ccc21 &field=EC50 returns > 100 µM

GET /value?item= O=[N+]([O-])c1cnc(Sc2nc(-c3ccc(Cl)cc3)n[nH]2)s1 &field=EC50 returns 15 to 49 µM

GET /value?item= O=[N+]([O-])c1cnc(Sc2nnc(O)n2-c2ccccc2)s1 &field=EC50 returns 13 to 20 µM

Others:
GET /value?item= O=[N+]([O-])c1cnc(Sc2nc3cnccc3[nH]2)s1 &field=EC50 returns 7 to 15 µM

GET /value?item= CC(C)n1c(Sc2ncc([N+](=O)[O-])s2)nc2ccccc21 &field=EC50 returns > 100 µM

GET /value?item= CC(C)(C)c1nc(Sc2ncc([N+](=O)[O-])s2)n[nH]1 &field=EC50 returns 16 to 20 µM

GET /value?item= O=[N+]([O-])c1cnc(Sc2ncc(C(F)(F)F)cn2)s1 &field=EC50 returns 8.8 µM

GET /value?item= O=[N+]([O-])c1cnc(Sc2n[nH]c(-c3ccccc3)n2)s1 &field=EC50 returns 17 µM

GET /value?item= Nc1nnc(Sc2ncc([N+](=O)[O-])s2)s1 &field=EC50 returns 8 µM

GET /value?item= O=[N+]([O-])c1cnc(Sc2n[nH]c(-c3cccs3)n2)s1 &field=EC50 returns 22 to 32 µM
